Experiment: Pharmacokinetic evaluation of oral administration and intravenous injection in rats
Assay type: in vivo, SD rats
Settings: male, SD, rat, in vivo; rats, intravenous injection of Compound 3 (5 mg/kg), 2 h; read-out: plasma concentration of Compound 3
Where a name gives a salt, the structure may show the parent alone.

compound: O=C(Nc1ncc([N+](=O)[O-])s1)c1ccccc1OP(=O)(O)O [Compound 3, phosphate monosodium salt]
concentration at 2 h, ng/mL: 113

====

Reported values of melting point for individual entries
assayMetric: melting point

structureSmiles: CC(C)(C)OC(=O)NCCS(=O)(=O)Oc1ccccc1C(=O)Nc1ncc([N+](=O)[O-])s1
result: 164 to 166 °C

structureSmiles: O=C(Nc1ncc([N+](=O)[O-])s1)c1ccccc1OP(=O)(O)O
result: 224 to 226 °C

structureSmiles: O=C(Nc1ncc([N+](=O)[O-])s1)c1ccccc1OP(=O)(OCc1ccccc1)OCc1ccccc1
result: 122 to 123 °C

structureSmiles: CCS(=O)(=O)Oc1ccccc1C(=O)Nc1ncc([N+](=O)[O-])s1
result: 178 to 180 °C

structureSmiles: CCCCS(=O)(=O)Oc1ccccc1C(=O)Nc1ncc([N+](=O)[O-])s1
result: 142 to 144 °C

structureSmiles: CS(=O)(=O)Oc1ccccc1C(=O)Nc1ncc([N+](=O)[O-])s1
result: 188 to 190 °C

structureSmiles: CCCS(=O)(=O)Oc1ccccc1C(=O)Nc1ncc([N+](=O)[O-])s1
result: 144 to 146 °C
